Origin of the recorded values: patent EP4782434A1

Tested on: Theta-mediated end joining (TMEJ) process in HEK293T cells
Assay: TMEJ reporter assay (NanoGlo luciferase)
Type: cell-based
Details: Homo sapiens, HEK-293T, HEK293T cells electroporated with TMEJ substrate, 24 hours
outcome-measure: IC50
Your reply should be a number followed by the unit it is expressed in.

For [2H]C([2H])([2H])Oc1cnc(C(F)F)cc1-c1cc(C([2H])([2H])[2H])ccc1C(=O)NS(=O)(=O)Cc1ccc([C@H](C)OC([2H])([2H])[2H])cc1 [cpd-18] the molecule record lists IC50 as 1.3 nM

For COc1ccc(C(F)F)cc1-c1cc(CC(=O)N(C)C)ccc1C(=O)NS(=O)(=O)Cc1ccc(C(C)C)cc1 [cpd-11] the molecule record lists IC50 as 2 nM

For [2H]C([2H])([2H])O[C@@H](C)c1ccc(CS(=O)(=O)NC(=O)c2ccc(C([2H])([2H])[2H])cc2-c2cc(Cl)ncc2OC)cc1 [cpd-17] the molecule record lists IC50 as 1.8 nM
